target: UniProtKB P41968; experiment: Competitive inhibition binding assay, 125I-NDP-α-MSH, MC3-R; set-up: expressed in transfected cells; settings: 1 μM compound; inhibition of 125I-NDP-α-MSH binding; mean of triplicates; results less than 0% reported as 0%
Sequence (P41968 whole entry): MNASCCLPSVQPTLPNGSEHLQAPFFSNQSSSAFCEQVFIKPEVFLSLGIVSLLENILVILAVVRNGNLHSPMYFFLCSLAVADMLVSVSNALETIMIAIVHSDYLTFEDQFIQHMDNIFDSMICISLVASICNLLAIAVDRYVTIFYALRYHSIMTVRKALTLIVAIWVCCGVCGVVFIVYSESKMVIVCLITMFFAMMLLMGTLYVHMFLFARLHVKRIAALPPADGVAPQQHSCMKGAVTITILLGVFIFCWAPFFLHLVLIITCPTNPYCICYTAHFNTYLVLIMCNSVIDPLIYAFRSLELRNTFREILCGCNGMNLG
measuredQuantity: Inhibition at 1 μM MC3-R (%)

Consider the reported Inhibition at 1 μM MC3-R for these compounds:
* NCCCNC(=O)[C@@H]1C[C@@H](OCc2ccccc2)CN1C(=O)[C@@H](Cc1ccccc1)NC(=O)[C@H](Cc1cnc[nH]1)NC(=O)c1ccccc1 | 3
* NCCCC[C@H]1C(=O)N(CCc2ccc3ccccc3c2)CCN1C(=O)[C@@H](Cc1ccc(Cl)cc1Cl)NCc1ccc2ccccc2c1 | 4
* NCCCNC(=O)[C@@H]1C[C@@H](OCc2ccccc2)CN1C(=O)[C@@H](Cc1ccccc1)NC(=O)C1(N)Cc2ccccc2C1 | 16
* CCCCCCC(=O)N[C@@H](COCc1ccccc1)C(=O)N[C@H](Cc1ccc2ccccc2c1)C(=O)N1C[C@@H](Oc2ccc3ccccc3c2)C[C@H]1C(=O)NCCCN | 0

(a) NCCCNC(=O)[C@@H]1C[C@@H](OCc2ccccc2)CN1C(=O)[C@@H](Cc1ccccc1)NC(=O)[C@@H](N)Cc1cccc2ccccc12
(b) NCCCC[C@H]1C(=O)N2C(CC[C@@H]2COc2ccc3c(c2)CCCC3)N1C(=O)[C@@H](Cc1ccc(Cl)cc1)NC(=O)[C@@H](N)COCc1ccccc1 (stereo partly drawn)
query: Of a and b , which one carries the higher reported Inhibition at 1 μM MC3-R? Answer with the label corresponding to your selection.
result: b
(b: 4%, a: 2%)

(P) CCCCCCC(=O)N[C@@H](COCc1ccccc1)C(=O)N[C@H](Cc1ccccc1Cl)C(=O)N1CCN(CCc2c[nH]c3ccccc23)C(=O)[C@@H]1CCCCN
(Q) NCCCC[C@H]1C(=O)N(CCc2ccc3ccccc3c2)CCN1C(=O)[C@@H](Cc1ccc(Cl)cc1Cl)NCCOCc1ccccc1
(R) CCCCCCC(=O)N[C@@H](COCc1ccccc1)C(=O)N[C@H](Cc1ccccc1Cl)C(=O)N1C2CC[C@H](COc3ccc4ccccc4c3)N2C(=O)[C@@H]1CCCCN (stereo partly drawn)
(S) NCCCCC1C(=O)N2C(COc3ccccc3)CCC2N1C(=O)C(N)Cc1ccccc1Cl (stereo not drawn)
query: Order the records, beginning with the lowest Inhibition at 1 μM MC3-R and ending with the highest. Write out the labels following the order that was asked for.
result: S, Q, R, P

(A) NCCCC[C@H]1C(=O)N(CCc2ccc3ccccc3c2)CCN1C(=O)[C@@H](Cc1ccc(Cl)cc1Cl)NC(=O)c1ccc(Oc2ccccc2)cc1
(B) NCCCC[C@H]1C(=O)N(CCc2ccc3ccccc3c2)CCN1C(=O)[C@@H](Cc1ccc(Cl)cc1Cl)NCc1ccc(-c2ccccc2)cc1
query: // compare measured Inhibition at 1 μM MC3-R, left A , right B , return larger Reply briefly: the label of your chosen item.
result: A

====

Target: MC1-R (B-16 mouse melanoma cells) (Mus musculus, UniProt Q01727)
Construct: B-16 mouse melanoma cells (containing MC1-R); endogenous in cells; host or cells: B-16 mouse melanoma cells
Sequence (Q01727 whole entry): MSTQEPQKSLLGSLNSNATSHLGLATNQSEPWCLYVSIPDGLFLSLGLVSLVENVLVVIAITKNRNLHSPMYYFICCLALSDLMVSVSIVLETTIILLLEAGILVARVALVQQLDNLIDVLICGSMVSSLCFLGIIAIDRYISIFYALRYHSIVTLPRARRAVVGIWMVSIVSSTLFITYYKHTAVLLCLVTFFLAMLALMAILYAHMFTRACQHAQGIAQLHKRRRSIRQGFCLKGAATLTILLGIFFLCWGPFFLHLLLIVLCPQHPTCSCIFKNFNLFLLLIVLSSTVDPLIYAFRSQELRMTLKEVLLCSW
Assay: Competitive inhibition binding assay, 125I-NDP-α-MSH, MC1-R
Details: 1 μM compound; inhibition of 125I-NDP-α-MSH binding; mean of triplicates; results less than 0% reported as 0%
Procedure: The competitive inhibition binding assay was conducted using membranes prepared from hMC3-R, hMC4-R, hMC5-R, and B-16 mouse melanoma cells (containing MC1-R) using 0.4 nM ^125I-NDP-α-MSH (New England Nuclear, Boston, Mass., USA) in 50 mM HEPES buffer containing 1 mM MgCl2, 2 mM CaCl2, and 5 mM KCl, at pH 7.2. […]
measuredQuantity: Inhibition at 1 μM MC1-R (%)

* NCCCCCCC(=O)N[C@@H](COCc1ccccc1)C(=O)N[C@H](Cc1ccc(Cl)cc1)C(=O)N1C2CC[C@H](COc3ccc4c(c3)CCCC4)N2C(=O)[C@@H]1CCCCN (stereo partly drawn) | 97

(I) NCCCNC(=O)[C@@H]1C[C@@H](OCc2ccccc2)CN1C(=O)[C@@H](Cc1ccccc1)NC(=O)[C@H](N)Cc1ccc2ccccc2c1
(II) N[C@H](Cc1ccc(Cl)cc1Cl)C(=O)N1CCN(CCc2ccc3ccccc3c2)C(=O)[C@@H]1CCNC1=NCCN1
(III) NC(=O)NCCCC[C@H]1C(=O)N(CCc2ccc3ccccc3c2)CCN1C(=O)[C@H](N)Cc1ccc(Cl)cc1Cl
query: Place the items in sequence of falling Inhibition at 1 μM MC1-R. Answer by listing the labels in the requested order.
result: III, II, I
(III: 43%, II: 24%, I: 0%)

====

target: UniProt P32245; assay: Competitive inhibition binding assay, 125I-NDP-α-MSH, MC4-R; design: expressed in transfected cells; settings: 1 μM compound; inhibition of 125I-NDP-α-MSH binding; mean of triplicates; results less than 0% reported as 0%
Sequence (P32245 whole entry): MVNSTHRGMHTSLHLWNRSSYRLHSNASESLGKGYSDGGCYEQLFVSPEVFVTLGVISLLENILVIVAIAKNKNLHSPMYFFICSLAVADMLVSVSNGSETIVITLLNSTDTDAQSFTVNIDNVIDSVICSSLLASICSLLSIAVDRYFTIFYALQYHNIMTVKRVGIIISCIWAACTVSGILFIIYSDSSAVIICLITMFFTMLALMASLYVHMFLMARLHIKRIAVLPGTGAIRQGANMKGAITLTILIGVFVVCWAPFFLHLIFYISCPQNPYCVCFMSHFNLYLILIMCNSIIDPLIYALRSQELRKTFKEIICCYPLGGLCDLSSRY
measuredQuantity: Inhibition at 1 μM MC4-R (%)

Would you please look over these solved cases?
• CS(=O)(=O)NCCC[C@H]1C(=O)N(CCc2ccc3ccccc3c2)CCN1C(=O)[C@@H](Cc1ccc(Cl)cc1Cl)NC(=O)[C@@H](N)COCc1ccccc1 = 40
• N=C(N)NCC[C@H]1C(=O)N(CCc2ccc3ccccc3c2)CCN1C(=O)[C@H](N)Cc1ccc(Cl)cc1Cl = 81
• NCCCC[C@H]1C(=O)N2C(CC[C@@H]2COc2ccccc2)N1C(=O)[C@@H](Cc1ccc(Cl)cc1)NC(=O)[C@@H]1Cc2ccccc2CN1 (stereo partly drawn) = 51
• CC(=O)NC(Cc1cnc[nH]1)C(=O)NC(Cc1ccccc1)C(=O)N1CC(OCc2ccccc2)CC1C(=O)NCCCN (stereo not drawn) = 43
• NCCCNC(=O)[C@@H]1C[C@@H](OCc2ccccc2)CN1C(=O)[C@@H](Cc1ccccc1)NC(=O)[C@H](N)C(c1ccccc1)c1ccccc1 = 7

(P) NCCCC[C@H]1C(=O)N2C(CC[C@@H]2COc2ccc3ccccc3c2)N1C(=O)[C@@H](Cc1ccccc1Cl)NC(=O)[C@@H]1C[C@@H](OCc2ccccc2)CN1 (stereo partly drawn)
(Q) COC(=O)NCCC[C@H]1C(=O)N(CCc2ccc3ccccc3c2)CCN1C(=O)[C@@H](Cc1ccc(Cl)cc1Cl)NC(=O)[C@@H](N)COCc1ccccc1
query: Problem: Given the entries P and Q , determine which has the lower reported Inhibition at 1 μM MC4-R. Pick one and reply with its label.
result: Q
(Q: 43%, P: 74%)

(a) NCCC[C@H]1C(=O)N(CCc2ccc3ccccc3c2)CCN1C(=O)[C@@H](Cc1ccc(Cl)cc1Cl)NC(=O)[C@@H](N)COCc1ccccc1
(b) N[C@H](Cc1ccc(Cl)cc1Cl)C(=O)N1CCN(CCc2ccc3ccccc3c2)C(=O)[C@@H]1CCCCNC(=O)CC1CCCCC1
(c) CC(=O)NCCCC1C(=O)N(CCc2ccc3ccccc3c2)CCN1C(=O)C(Cc1ccc(Cl)cc1Cl)NC(=O)C(N)COCc1ccccc1 (stereo not drawn)
query: Please rank these compounds by Inhibition at 1 μM MC4-R in descending order. Write out the labels following the order that was asked for.
result: a, c, b
(a: 94%, c: 61%, b: 6%)

(I) CNC(=O)NCCC[C@H]1C(=O)N(CCc2ccc3ccccc3c2)CCN1C(=O)[C@@H](Cc1ccc(Cl)cc1Cl)NC(=O)[C@@H](N)COCc1ccccc1
(II) NCCCNC(=O)C1CC(OCc2ccccc2)CN1C(=O)C(Cc1ccccc1)NC(=O)C1NCCc2ccccc21 (stereo not drawn) [Example 160]
query: For the two items I and II , which reports the higher Inhibition at 1 μM MC4-R value? Please respond with the label that marks your chosen entry.
result: I
(I: 72%, II: 5%)

====

biological target: MC1-R (B-16 mouse melanoma cells) (Mus musculus, UniProt Q01727); construct: B-16 mouse melanoma cells (containing MC1-R); endogenous in cells; host or cells: B-16 mouse melanoma cells; assay: Competitive inhibition binding assay, 125I-NDP-α-MSH, MC1-R; details: 1 μM compound; inhibition of 125I-NDP-α-MSH binding; mean of triplicates; results less than 0% reported as 0%
measuredQuantity: Inhibition at 1 μM MC1-R (%)

• NCCCC[C@H]1C(=O)N2C(CC[C@@H]2COc2ccc3ccccc3c2)N1C(=O)[C@@H](Cc1ccccc1Cl)NC(=O)[C@H]1NCCc2ccccc21 (stereo partly drawn) = 66

(a) NCCCNC(=O)[C@@H]1C[C@@H](OCc2ccccc2)CN1C(=O)[C@@H](Cc1ccccc1)NC(=O)[C@@H](N)C1Cc2ccccc2C1
(b) NCCCC[C@H]1C(=O)N(CCc2ccc3ccccc3c2)CCN1C(=O)[C@@H](Cc1ccc(Cl)cc1Cl)NC(=O)[C@H]1CC[C@@H](c2ccccc2)N1
(c) C[C@@H](OCc1ccccc1)[C@H](N)C(=O)N[C@H](Cc1ccc(Cl)cc1Cl)C(=O)N1CCN(CCc2ccc3ccccc3c2)C(=O)[C@@H]1CCCCN
query: Sort ascending by Inhibition at 1 μM MC1-R. Reply format: the labels, ordered as requested.
result: b, a, c

(a) NC(=O)CC[C@H]1C(=O)N(CCc2ccc3ccccc3c2)CCN1C(=O)[C@H](N)Cc1ccc(Cl)cc1Cl
(b) NCCCCC1C(=O)N2C(COc3ccccc3)CCC2N1C(=O)C(N)Cc1ccc(Cl)cc1 (stereo not drawn)
query: Out of a and b , name the one with the higher Inhibition at 1 μM MC1-R. # reply format: chosen label
result: b
